Listing of recorded growth by entry.
- Test system: Klebsiella aerogenes DSM 30053
- measurement protocol: growth (OD595) fold change vs plate DMSO controls (fold change (ratio)); higher = more growth
- recorded conditions: incubation time: 27 h, anaerobic, 37 °C
Counter-ions that a name gives are not always drawn.
property label: growth

| compound | system | reported result |
| --- | --- | --- |
| CNC(=O)OCc1cccc(COC(=O)NC)n1 [Pyricarbate] (20 µM) | Klebsiella aerogenes DSM 30053 | 1.03 |
| Cc1cccn2c(=O)c(-c3nnn[nH]3)cnc12 [Pemirolast potassium] (20 µM) | Klebsiella aerogenes DSM 30053 | 0.975 |
| O=C(NC(Cc1cc(=O)[nH]c2ccccc12)C(=O)O)c1ccc(Cl)cc1 (configuration not stated) [Rebamipide] (20 µM) | Klebsiella aerogenes DSM 30053 | 0.964 |
| COc1cc(OC)c(C(=O)CCCN2CCCC2)c(OC)c1 [Buflomedil hydrochloride] (20 µM) | Klebsiella aerogenes DSM 30053 | 0.965 |
| CCN(CC)C(=O)c1ccc(O)c(OC)c1 [Ethamivan] (20 µM) | Klebsiella aerogenes DSM 30053 | 1.05 |
| O=C(CCCN1CCC(O)(c2ccc(Cl)cc2)CC1)c1ccc(F)cc1 [Haloperidol] (20 µM) | Klebsiella aerogenes DSM 30053 | 0.574 |
| CC(C(=O)O)c1cccc(Oc2ccccc2)c1 (configuration not stated) [Fenoprofen calcium salt dihydrate] (20 µM) | Klebsiella aerogenes DSM 30053 | 1.04 |
| C[N+](C)(C)CCOC(N)=O [Carbachol chloride] (20 µM) | Klebsiella aerogenes DSM 30053 | 0.997 |
| CC1=C(C(=O)O)N2C(=O)[C@@H](NC(=O)[C@H](N)c3ccccc3)[C@H]2SC1 [Cephalexin monohydrate] (20 µM) | Klebsiella aerogenes DSM 30053 | 0.98 |
| CCCCC1=NC2(CCCC2)C(=O)N1Cc1ccc(-c2ccccc2-c2nnn[nH]2)cc1 [Irbesartan] (20 µM) | Klebsiella aerogenes DSM 30053 | 1.01 |
| NC(=O)OCC(O)COc1ccc(Cl)cc1 (configuration not stated) [Chlorphensin carbamate] (20 µM) | Klebsiella aerogenes DSM 30053 | 0.951 |
| CCC[C@@H]1C[C@@H](C(=O)N[C@@H]([C@H]2O[C@H](SC)[C@H](O)[C@@H](O)[C@H]2O)[C@@H](C)O)N(C)C1 [Lincomycin hydrochloride] (20 µM) | Klebsiella aerogenes DSM 30053 | 0.981 |
| O=S(=O)(c1cccc2cnccc12)N1CCCNCC1 [Fasudil Hydrochloride] (20 µM) | Klebsiella aerogenes DSM 30053 | 0.977 |
| CN1CCC(=C2c3ccccc3CCc3cccnc32)CC1 [Azatadine maleate] (20 µM) | Klebsiella aerogenes DSM 30053 | 0.994 |
| Cc1ccc(/C(=C\CN2CCCC2)c2ccccn2)cc1 [Triprolidine hydrochloride] (20 µM) | Klebsiella aerogenes DSM 30053 | 0.998 |
| COc1cccc(N(C)C(=S)Oc2ccc3c(c2)CCCC3)n1 [Liranaftate] (20 µM) | Klebsiella aerogenes DSM 30053 | 0.969 |
| O=C1CCc2cc(OCCCCc3nnnn3C3CCCCC3)ccc2N1 [Cilostazol] (20 µM) | Klebsiella aerogenes DSM 30053 | 0.98 |

###

- System: Clostridium sporogenes DSM 1664
- measurement protocol: fold change of Tryptamine concentration vs plate DMSO controls (fold change (ratio)); higher = more amine produced, active = hit call of the paper (significant change in both replicates, either direction)
- recorded conditions: incubation time: 27 h, anaerobic, 37 °C
Where a name gives a salt, the structure may show the parent alone.
Decision: fold change of Tryptamine concentration >= 1 yields 1 (yes), all other cases yield 0 (no).

| compound | group label |
| --- | --- |
| C1N2CN3CN1CN(C2)C3 [Methenamine] (20 µM) | 1 (yes) |
| CCS(=O)(=O)CCn1c([N+](=O)[O-])cnc1C [Tinidazole] (20 µM) | 0 (no) |
| O=C(O)COc1nn(Cc2ccccc2)c2ccccc12 [Bendazac] (20 µM) | 0 (no) |
| CC1(C)S[C@@H]2[C@H](NC(=O)[C@H](C(=O)O)c3ccsc3)C(=O)N2[C@H]1C(=O)O [Ticarcillin sodium] (20 µM) | 0 (no) |
| CNC[C@H](O)[C@@H](O)[C@H](O)[C@H](O)CO [Meglumine] (20 µM) | 1 (yes) |
| CC(=O)Oc1c(C)cccc1C(=O)O [Cresopirine] (20 µM) | 1 (yes) |
| O=C1C(=O)c2ccccc2C(O)=C1C1CCC(c2ccc(Cl)cc2)CC1 (configuration not stated) [Atovaquone] (20 µM) | 0 (no) |
| CCN(CC)CCOC(=O)C(c1ccccc1)c1ccccc1 [Adiphenine hydrochloride] (20 µM) | 1 (yes) |
| COC1=CC(=O)C[C@@H](C)[C@]12Oc1c(Cl)c(OC)cc(OC)c1C2=O [Griseofulvin] (20 µM) | 1 (yes) |
| CCCCC(CC)CNC(=N)NC(=N)NCCCCCCNC(=N)NC(=N)NCC(CC)CCCC (configuration not stated) [Alexidine dihydrochloride] (20 µM) | 0 (no) |
| C/C(=C\C(=O)OCCCCCCCCC(=O)O)C[C@@H]1OC[C@H](C[C@@H]2O[C@H]2[C@@H](C)[C@H](C)O)[C@@H](O)[C@H]1O [Mupirocin] (20 µM) | 0 (no) |

###

- Test system: Klebsiella aerogenes DSM 30053
- measurement protocol: fold change of Putrescine concentration vs plate DMSO controls (fold change (ratio)); higher = more amine produced, active = hit call of the paper (significant change in both replicates, either direction)
- recorded conditions: incubation time: 27 h, anaerobic, 37 °C
Where a name gives a salt, the structure may show the parent alone.
property label: fold change of Putrescine concentration

| compound | system | reported result |
| --- | --- | --- |
| CCOC(=O)[C@H](CCc1ccccc1)N[C@@H](C)C(=O)N1C(=O)N(C)C[C@H]1C(=O)O [Imidapril hydrochloride] (20 µM) | Klebsiella aerogenes DSM 30053 | 0.997 |
| O=C(O)c1cc(/N=N/c2ccc(S(=O)(=O)Nc3ccccn3)cc2)ccc1O [Sulfasalazine] (20 µM) | Klebsiella aerogenes DSM 30053 | 0.995 |
| Oc1ccc(OCc2ccccc2)cc1 [Monobenzone] (20 µM) | Klebsiella aerogenes DSM 30053 | 1.01 |
| CC(C)Oc1ccc2c(=O)c(-c3ccccc3)coc2c1 [Ipriflavone] (20 µM) | Klebsiella aerogenes DSM 30053 | 1.02 |
| CC1CC(OC(=O)C(O)c2ccccc2)CC(C)(C)C1 (stereo not given) [Cyclandelate] (20 µM) | Klebsiella aerogenes DSM 30053 | 1.02 |
| CCC(=O)OCC(=O)[C@@]1(OC(=O)CC)[C@@H](C)C[C@H]2[C@@H]3CCC4=CC(=O)C=C[C@]4(C)[C@@]3(Cl)[C@@H](O)C[C@@]21C [Beclomethasone dipropionate] (20 µM) | Klebsiella aerogenes DSM 30053 | 1.01 |
| NS(=O)(=O)c1cc2c(cc1Cl)NC(CC1CCCC1)NS2(=O)=O (stereo not given) [Cyclopenthiazide] (20 µM) | Klebsiella aerogenes DSM 30053 | 1.01 |
| O=C1c2ccccc2S(=O)(=O)N1CCCCN1CCN(c2ncccn2)CC1 [Ipsapirone] (20 µM) | Klebsiella aerogenes DSM 30053 | 0.997 |
| CCC(=O)c1c(O)cc(O)cc1O [Flopropione] (20 µM) | Klebsiella aerogenes DSM 30053 | 1.01 |
| CCCSS/C(CCO)=C(/C)N(C=O)Cc1cnc(C)nc1N [Prosultiamine] (20 µM) | Klebsiella aerogenes DSM 30053 | 0.98 |
| C[C@@H]1CCO[C@H]2Cn3cc(C(=O)NCc4ccc(F)cc4F)c(=O)c(O)c3C(=O)N12 [Dolutegravir] (20 µM) | Klebsiella aerogenes DSM 30053 | 0.999 |
| Cn1c(=O)cc(N2CCC[C@@H](N)C2)n(Cc2ccccc2C#N)c1=O [Alogliptin benzoate] (20 µM) | Klebsiella aerogenes DSM 30053 | 1.01 |
| Cc1ccc(S(=O)(=O)NC(=O)NN2CCCCCC2)cc1 [Tolazamide] (20 µM) | Klebsiella aerogenes DSM 30053 | 0.974 |
| Cc1ccnc2c1NC(=O)c1cccnc1N2C1CC1 [Nevirapine] (20 µM) | Klebsiella aerogenes DSM 30053 | 1.02 |
| CN[C@@H]1[C@H](O[C@H]2[C@H](O[C@H]3[C@H](O)[C@@H](O)[C@H](NC(=N)N)[C@@H](O)[C@@H]3NC(=N)N)O[C@@H](C)[C@]2(O)CO)O[C@@H](CO)[C@H](O)[C@H]1O [Dihydrostreptomycin sulfate] (20 µM) | Klebsiella aerogenes DSM 30053 | 0.922 |
| CCOC(=O)c1c(N)sc2c1CCN(Cc1ccccc1)C2 [Tinoridine hydrochloride] (20 µM) | Klebsiella aerogenes DSM 30053 | 1 |
| O=C1[C@@H]2[C@H]3CC[C@H](C3)[C@@H]2C(=O)N1CCCCN1CCN(c2ncccn2)CC1 [Tandospirone] (20 µM) | Klebsiella aerogenes DSM 30053 | 0.995 |
| CC(C)n1c(/C=C/C(O)CC(O)CC(=O)O)c(-c2ccc(F)cc2)c2ccccc21 (stereo not given) [Fluvastatin sodium salt] (20 µM) | Klebsiella aerogenes DSM 30053 | 1.05 |
| Cc1cccc(N(C)C(=S)Oc2ccc3ccccc3c2)c1 [Tolnaftate] (20 µM) | Klebsiella aerogenes DSM 30053 | 1.01 |
| CCn1cc(C(=O)O)c(=O)c2cc(F)c(N3CCN(C)CC3)cc21 [Pefloxacin] (20 µM) | Klebsiella aerogenes DSM 30053 | 1.05 |
| Cc1nc(=O)c2cc(CN(C)c3ccc(C(=O)N[C@@H](CCC(=O)O)C(=O)O)s3)ccc2[nH]1 [Raltitrexed] (20 µM) | Klebsiella aerogenes DSM 30053 | 0.968 |
| CC[C@@H](CO)NCCN[C@@H](CC)CO [Ethambutol dihydrochloride] (20 µM) | Klebsiella aerogenes DSM 30053 | 0.987 |
| CCOCC(O)COc1ccc(NC(=O)CC[S+](C)C)cc1 (stereo not given) [Suplatast Tosylate] (20 µM) | Klebsiella aerogenes DSM 30053 | 1.02 |
| CC(=O)NC[C@H]1CN(c2ccc(N3CCOCC3)c(F)c2)C(=O)O1 [Linezolid] (20 µM) | Klebsiella aerogenes DSM 30053 | 1 |
| CC(N/C(=N\C#N)Nc1ccncc1)C(C)(C)C (stereo not given) [Pinacidil monohydrate] (20 µM) | Klebsiella aerogenes DSM 30053 | 1 |
| CN1C(C(=O)Nc2ccccn2)=C(O)c2ccccc2S1(=O)=O [Piroxicam] (20 µM) | Klebsiella aerogenes DSM 30053 | 0.99 |
| CCCCN(CCCC)CCC(O)c1cc2c(Cl)cc(Cl)cc2c2cc(C(F)(F)F)ccc12 (stereo not given) [Halofantrine hydrochloride] (20 µM) | Klebsiella aerogenes DSM 30053 | 0.964 |
| CO/N=C(\C(=O)N[C@@H]1C(=O)N2C(C(=O)OC(C)OC(C)=O)=C(COC(N)=O)CS[C@H]12)c1ccco1 (stereo not given in full) [Cefuroxime axetil] (20 µM) | Klebsiella aerogenes DSM 30053 | 1.05 |
| CN(C)CCCSC(=N)N [Dimaprit dihydrochloride] (20 µM) | Klebsiella aerogenes DSM 30053 | 0.996 |
| Nc1nc(F)nc2c1ncn2[C@@H]1O[C@H](CO)[C@@H](O)[C@@H]1O [Fludarabine] (20 µM) | Klebsiella aerogenes DSM 30053 | 0.965 |
